Quick reference for DC50 among some molecules
target: BCL6 (Homo sapiens, UniProt P41182); construct: Endogenous BCL6 was tagged with the 11-amino acid SmBiT through CRISPR/Cas9 gene editing; endogenous in cells; host or cells: Su-DHL-4 (CRISPR/Cas9 knock-in, single cell clone); test: HiBiT cellular degradation assay in Su-DHL-4 cells; assay type: cell-based; details: concentration to reach 50% degradation of endogenous SmBiT-tagged BCL6, 24 hours of compound treatment
outcome.measure: DC50

| smiles.string | system.tested | val |
| --- | --- | --- |
| C[C@H]1CN(c2nc(Nc3ccc4c(c3)n(C[C@H]3COC(=O)N3)c(=O)n4C)c(F)cc2C#N)C[C@@H](N)C1(F)F | BCL6 (Homo sapiens, UniProt P41182) | > 400 nM |
| C[C@@H]1CN(c2nc(Nc3ccc4c(c3)cc(OCC3(C)COC3)c(=O)n4C)c(Cl)cc2C#N)C[C@H](C)C1(F)F | BCL6 (Homo sapiens, UniProt P41182) | > 400 nM |
| CNC(=O)COc1cc2cc(Nc3nc(N4C[C@H](C)C[C@H](N)C4)c(C#N)cc3Cl)ccc2n(C)c1=O | BCL6 (Homo sapiens, UniProt P41182) | > 400 nM |
| C[C@H]1CN(c2nc(Nc3ccc4c(c3)n(CCC(C)(C)O)c(=O)n4C)c(Cl)cc2C#N)C[C@@H](O)C1(F)F | BCL6 (Homo sapiens, UniProt P41182) | > 400 nM |

---

target: BCL6 (Homo sapiens, UniProt P41182); construct: Endogenous BCL6 was tagged with the 11-amino acid SmBiT through CRISPR/Cas9 gene editing; endogenous in cells; host or cells: Su-DHL-4 (CRISPR/Cas9 knock-in, single cell clone); experiment: HiBiT cellular degradation assay in Su-DHL-4 cells; assay type: cell-based; details: concentration to reach 50% degradation of endogenous SmBiT-tagged BCL6, 24 hours of compound treatment
Counter-ions that a name gives are not always drawn.

| compound | system.tested | DC50 |
| --- | --- | --- |
| C[C@H]1CN(c2nc(Nc3ccc4c(c3)n(CCC(C)(C)O)c(=O)n4C)c(F)cc2C#N)C[C@@H](O)C1(F)F (single isomer, unassigned) | BCL6 (Homo sapiens, UniProt P41182) | > 400 nM |
| CNC(=O)COc1cc2cc(Nc3nc(N4C[C@@H](C)C[C@@H](C(=O)O)C4)c(C#N)cc3Cl)ccc2n(C)c1=O | BCL6 (Homo sapiens, UniProt P41182) | > 400 nM |
| C[C@@H]1C[C@H](N)CN(c2nc(Nc3ccc4c(c3)c3c(c(=O)n4C)OCC(F)(F)[C@H](C4CC4)N3)c(Cl)cc2C#N)C1 | BCL6 (Homo sapiens, UniProt P41182) | > 400 nM |
| C[C@@H]1CN(c2nc(Nc3ccc4c(c3)cc(OC[C@H]3CNCCO3)c(=O)n4C)c(Cl)cc2C#N)C[C@H](C)[C@@H]1F | BCL6 (Homo sapiens, UniProt P41182) | > 400 nM |
| C[C@H]1CN(c2nc(Nc3ccc4c(c3)n(CCC(C)(C)O)c(=O)n4C)c(Cl)cc2C#N)C[C@@H](N)C1(F)F (single isomer, unassigned) | BCL6 (Homo sapiens, UniProt P41182) | > 400 nM |
| C[C@@H]1CN(c2nc(Nc3ccc4c(c3)n(C[C@H]3CNC(=O)O3)c(=O)n4C)c(F)cc2C#N)C[C@H](N)C1(F)F | BCL6 (Homo sapiens, UniProt P41182) | > 400 nM |
| CNC(=O)COc1cc2cc(Nc3nc(N4C[C@@H](C)C(F)(F)[C@@H](C)C4)c(C#N)cc3Cl)ccc2nc1OCC1COC1 | BCL6 (Homo sapiens, UniProt P41182) | > 400 nM |
| C[C@H]1C[C@@H](N)CN(c2nc(Nc3ccc4c(c3)n(CCC(C)(C)O)c(=O)n4C)c(Cl)cc2C#N)C1 | BCL6 (Homo sapiens, UniProt P41182) | > 400 nM |
| C[C@@H]1CN(c2nc(Nc3ccc4c(c3)n(CCC(C)(C)O)c(=O)n4C)c(F)cc2C#N)C[C@H](N)C1(F)F [Compound 80, hydrochloride] | BCL6 (Homo sapiens, UniProt P41182) | > 400 nM |
| C[C@H]1CN(c2nc(Nc3ccc4c(c3)n(CCC(C)(C)O)c(=O)n4CC3COC3)c(Cl)cc2C#N)C[C@@H](N)C1(F)F | BCL6 (Homo sapiens, UniProt P41182) | > 400 nM |
| C[C@H]1CN(c2nc(Nc3ccc4c(c3)n(C[C@@H]3COC(=O)N3)c(=O)n4C)c(F)cc2C#N)C[C@@H](N)C1(F)F | BCL6 (Homo sapiens, UniProt P41182) | > 400 nM |
| C[C@H]1CN(c2nc(Nc3ccc4c(c3)n(C[C@@H]3CNC(=O)O3)c(=O)n4C)c(F)cc2C#N)C[C@@H](N)C1(F)F | BCL6 (Homo sapiens, UniProt P41182) | > 400 nM |
